Test system: NCI-H1341 complex spheroids, percent test/control
Assay Protocol: Anticancer human tumor NCI-H1341 cell line growth inhibition [AhR];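 note: spheroids exposed to agents for seven days before readout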
Measurement Conditions: curve of first compound; second compound 1 µM
pIC50: −log10 of the molar value.
Readout Type: pIC50

O=C(c1cc(Cc2n[nH]c(=O)c3ccccc23)ccc1F)N1CCN(C(=O)C2CC2)CC1 + Cc1ccccc1N=Nc1ccc(NC(=O)c2ccnn2C)c(C)c1 | < 5.00
CC(C)c1c(-c2ccccc2)nc2c(C#N)c[nH]n2c1=O + Cc1cncc(-c2nc(NCCc3c[nH]c4ccccc34)c3ncn(C(C)C)c3n2)c1 | < 5.00

Recall the reported pIC50 of Nc1ncn(C2CC(O)C(CO)S2)c(=O)n1 (stereo not drawn) + Cc1cncc(-c2nc(NCCc3c[nH]c4ccccc34)c3ncn(C(C)C)c3n2)c1 when tested on NCI-H1341 complex spheroids, percent test/control. < 6.52

----------
Test system: NCI-H1341 complex spheroids, percent test/control
Assay Protocol: Anticancer human tumor NCI-H1341 cell line growth inhibition [AhR]; active = viability on the fitted dose curve at most 10% of control; inactive = the rest;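 note: spheroids exposed to agents for seven days before readout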
Measurement Conditions: second compound 3.16 µM; first compound 3.16 µM
Description: Multicellular complex tumor spheroid response to aryl hydrocarbon receptor antagonists in combination with a variety of drugs and investigational agents in selected tumor cell lines […] Compounds. […] If the clinical Cmax for an agent had not been determined, the highest concentration tested was 10 microM (Table 1). […]
Select the matching outcome among y (active), n (inactive)

Previously resolved entries follow.
CC1COCCN1c1cc(C2(S(C)(=N)=O)CC2)nc(-c2ccnc3[nH]ccc23)n1 (stereo not drawn) + Cc1cncc(-c2nc(NCCc3c[nH]c4ccccc34)c3ncn(C(C)C)c3n2)c1 | n
COc1ccc([C@@H](O)c2cc(-c3ncnc4cc(N5CCOCC5)ccc34)c(F)cc2Cl)nn1 + Cc1cncc(-c2nc(NCCc3c[nH]c4ccccc34)c3ncn(C(C)C)c3n2)c1 | n

--- query ---
// param item: O=C(C=Cc1cccc(S(=O)(=O)Nc2ccccc2)c1)NO + CC(CO)NC(=O)c1cc(-c2ccc(Cl)cc2)nn(-c2cnn(C)c2)c1=O ; yields the recorded call y

----------
System: NCI-H1341 complex spheroids, percent test/control
Assay Protocol: Anticancer human tumor NCI-H1341 cell line growth inhibition [AhR];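 note: spheroids exposed to agents for seven days before readout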
Measurement Conditions: second compound 0.1 µM; first compound 0.01 µM; stronger effect = lower value
Known viability, T/C of a selection of molecules
The reply should be a number in %, with the unit left off.

Guide cases for viability, T/C, answers given:
CC[C@@]1(O)C(=O)OCc2c1cc1n(c2=O)Cc2cc3c(CN(C)C)c(O)ccc3nc2-1 + CC(CO)NC(=O)c1cc(-c2ccc(Cl)cc2)nn(-c2cnn(C)c2)c1=O | 81.5
Nc1ncn(C2CC(O)C(CO)O2)c(=O)n1 (stereo not drawn) + CC(CO)NC(=O)c1cc(-c2ccc(Cl)cc2)nn(-c2cnn(C)c2)c1=O | 85.7

Retrieve viability, T/C measured for Cn1ncnc1C1c2n[nH]c(=O)c3cc(F)cc(c23)NC1c1ccc(F)cc1 (stereo not drawn) + Cc1ccccc1N=Nc1ccc(NC(=O)c2ccnn2C)c(C)c1 and print it. 86.1

----------
Test system: NCI-H1341 complex spheroids, percent test/control
Assay Protocol: Anticancer human tumor NCI-H1341 cell line growth inhibition [AhR];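 note: spheroids exposed to agents for seven days before readout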
Measurement Conditions: second compound 0.316 µM; first compound 0.0316 µM; stronger effect = lower value
Readout Type: viability, T/C (%)
The reply should be a number in %, with the unit left off.

Guide cases for viability, T/C, answers given:
O=C(c1cc(Cc2n[nH]c(=O)c3ccccc23)ccc1F)N1CCN(C(=O)C2CC2)CC1 + Cc1cncc(-c2nc(NCCc3c[nH]c4ccccc34)c3ncn(C(C)C)c3n2)c1 | 72.7
O=C(c1cc(Cc2n[nH]c(=O)c3ccccc23)ccc1F)N1CCN(C(=O)C2CC2)CC1 + Cc1ccccc1N=Nc1ccc(NC(=O)c2ccnn2C)c(C)c1 | 87.4

Retrieve viability, T/C measured for COc1cc(C2c3cc4c(cc3C(OC3OC5COC(C)OC5C(O)C3O)C3COC(=O)C23)OCO4)cc(OC)c1O (centres undefined) + CC(CO)NC(=O)c1cc(-c2ccc(Cl)cc2)nn(-c2cnn(C)c2)c1=O and print it. 72.4
